Where do these numbers come from? They come from paper PMC10397247.

Biological target: T1, 4H3189-bA
T1 chain: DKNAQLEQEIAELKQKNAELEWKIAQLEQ
Test: two-hybrid library CCNG1;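 further: natural log of median RNA to DNA barcode read ratio; higher means stronger binding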
Measured Metric: interaction score
Answer with a bare number; do not write a unit.

Some binders with recorded interaction score:
1. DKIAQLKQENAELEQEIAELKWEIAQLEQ [4H2697-bA] :: -1.34
2. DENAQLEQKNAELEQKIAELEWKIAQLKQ [4H1446-bA] :: -0.621
3. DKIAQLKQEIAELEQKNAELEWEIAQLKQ [4H2610-bA] :: -0.366
4. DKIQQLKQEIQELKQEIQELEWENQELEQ [4H2627-bN] :: -2.27
5. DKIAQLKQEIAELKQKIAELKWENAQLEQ [4H2667-bA] :: -0.909

What value of interaction score has been reported for the following binder? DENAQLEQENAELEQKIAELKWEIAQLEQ [4H1193-bA]
-0.992

What value of interaction score has been reported for the following binder? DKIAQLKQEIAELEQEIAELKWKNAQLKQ [4H2576-bA]
-0.652

What value of interaction score has been reported for the following binder? DKNAQLEQEIAELKQKNAELEWKIAQLEQ [4H3189-bA]
0.465

What value of interaction score has been reported for the following binder? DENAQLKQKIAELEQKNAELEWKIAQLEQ [4H1845-bA]
-0.547

What value of interaction score has been reported for the following binder? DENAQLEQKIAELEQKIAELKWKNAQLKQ [4H1328-bA]
-0.907

What value of interaction score has been reported for the following binder? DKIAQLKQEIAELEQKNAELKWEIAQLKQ [4H2618-bA]
-2.6

What value of interaction score has been reported for the following binder? DKIQELKKEIEELEREIWELEKKNQELKR [4H2568-bH]
0.615

What value of interaction score has been reported for the following binder? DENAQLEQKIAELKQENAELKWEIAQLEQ [4H1369-bA]
-0.843
